# Assay protocol: Selectivity index, ratio of IC50 for cytotoxicity against human MCF-10A cells to IC50 for cytotoxicity against human A549 cells
# Type: toxicity, cell-based
# Condition notes: MCF-10A cells and A549 cells, read-out: Ratio IC50
Property: selectivity ratio

Compound smiles: O=C(CCCCCC(=O)N(Cc1ccc(Br)s1)c1ccc(OCCN2CCOCC2)cc1)NO
Result: > 16.2

###

# System: MCF7
# Assay protocol: Cytotoxicity against human MCF7 cells assessed as inhibition of cell growth by MTT assay
# Type: functional, cell-based
# log10 IC50 listing for each entry below
Property: log10 IC50 (log10 of the value in nM)

Compound: CC(C)=CCC/C(C)=C/CC/C(C)=C/CSc1ccccc1C(=O)NCCC(=O)NO
System name: MCF7
log10 IC50: 3.69

Compound: O=C(Cn1cnc2c(c1=O)C1CCCCC1S2)Nc1ccc(C(=O)NO)cc1 (stereo unspecified)
System name: MCF7
log10 IC50: 3.69

Compound: Cc1ccc(-c2nnc(NC(=O)CCCCCCC(=O)NO)s2)s1
System name: MCF7
log10 IC50: 2.94

Compound: COc1ccc(/C=C/C(=O)c2ccc(OCC(=O)NO)cc2)cc1
System name: MCF7
log10 IC50: 2.79

Compound: O=C(CCCCCCC(=O)Nc1nnc(-c2cccs2)s1)NO
System name: MCF7
log10 IC50: 2.94

Compound: O=C(CCCCCC(=O)N(Cc1ccc(Br)s1)c1ccc(OCCN2CCOCC2)cc1)NO
System name: MCF7
log10 IC50: 2.79

Compound: COc1ccc(-c2ocnc2-c2cc(Br)c(OC)c(OC)c2)cc1OCCCC(=O)NO
System name: MCF7
log10 IC50: 1.26

Compound: O=C(CCCCCCC(=O)Nc1nnc(-c2ccco2)s1)NO
System name: MCF7
log10 IC50: 2.94

Compound: O=C(Cn1cnc2c(c1=O)C1CCCCC1S2)NCc1ccc(C(=O)NO)cc1 (stereo unspecified)
System name: MCF7
log10 IC50: 3.69

Compound: O=C(COc1ccc(C(=O)/C=C/c2ccccc2)cc1)NO
System name: MCF7
log10 IC50: 2.79

Compound: Cc1ccc(-c2nnc(NC(=O)CCCCCCC(=O)NO)s2)o1
System name: MCF7
log10 IC50: 2.94

Compound: O=C(CCCN1CCN(C(=O)Nc2cccc3ncccc23)CC1)NO
System name: MCF7
log10 IC50: 3.86

Compound: O=C(CCCCCCC(=O)Nc1nnc(-c2ccc(Br)o2)s1)NO
System name: MCF7
log10 IC50: 2.94

Compound: O=C(CCCCCCn1cnc2c(c1=O)C1CCCCC1S2)NO (stereo unspecified)
System name: MCF7
log10 IC50: 3.52

Compound: O=C(COc1ccc(C(=O)/C=C/c2ccc(F)cc2)cc1)NO
System name: MCF7
log10 IC50: 2.79

Compound: CC(C)=CCC/C(C)=C/CC/C(C)=C/CSc1ccccc1C(=O)NCCCC(=O)NO
System name: MCF7
log10 IC50: 3.69

Compound: O=C(CCCCCCCn1cnc2c(c1=O)C1CCCCC1S2)NO (stereo unspecified)
System name: MCF7
log10 IC50: 3.52
